Tested on: MH100x4
Test: MH100x4 luciferase reporter without receptor
Type: cell-based
Conditions: Table 2; dose 5 (unit not given); None 0.49
We begin with a simple list: items and their reported Reporter Activity.

| compound | quantity name | result |
| --- | --- | --- |
| CCCCCCCCCCCCOc1ccc(C(CC)=C(CC)c2ccc(OCCCCCCCCCCCC)cc2)cc1 [DY15] | Reporter Activity | 0.4 |

Problem: # return recorded Reporter Activity for entry CCC(=C(CC)c1ccc(O)c(C=C(C)C)c1)c1ccc(O)cc1 [DY16]
Solution: 0.35

Problem: Please look at this compound and report its Reporter Activity: CCC(=C(CC)c1ccc(Oc2cccc(C=O)c2)cc1)c1ccc(O)cc1 [DY19]
Solution: 0.37
